// data source = patent US20120016014A1

- targetUnderTest: purified PfENR (Plasmodium falciparum, UniProt Q9BH77)
- Sequence (Q9BH77 22-432): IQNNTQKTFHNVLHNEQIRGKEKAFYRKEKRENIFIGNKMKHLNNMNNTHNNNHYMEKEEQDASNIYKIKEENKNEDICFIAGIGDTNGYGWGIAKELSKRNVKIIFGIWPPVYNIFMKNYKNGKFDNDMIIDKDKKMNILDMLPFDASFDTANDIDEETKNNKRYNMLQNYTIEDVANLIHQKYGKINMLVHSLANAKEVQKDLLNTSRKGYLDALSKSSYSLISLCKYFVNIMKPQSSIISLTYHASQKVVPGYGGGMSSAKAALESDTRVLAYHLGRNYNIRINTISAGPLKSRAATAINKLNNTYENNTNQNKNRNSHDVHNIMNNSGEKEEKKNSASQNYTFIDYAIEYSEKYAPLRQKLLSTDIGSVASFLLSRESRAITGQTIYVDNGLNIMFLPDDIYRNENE
- runDescription: PfENR inhibition, standard enzyme assay
- Assay type: biochemical
- studyConditions: Inhibition of PfENR (IC50 μM)
valueKind: IC50 (µM)
Numeric answer only, unit µM assumed.

# input What value of measured IC50 is listed for O=C(NCc1ccc(C(F)(F)F)cc1)c1sc2ccccc2c1Br ?
# output 0.463

---

Below, each entry is listed alongside its reported IC50.
- Test system: Plasmodium falciparum 3D7
- runDescription: In vitro inhibition of P. falciparum 3D7 blood-stage parasites
- Assay type: cell-based
- studyConditions: Plasmodium falciparum, 3D7, Erythrocyte, read-out: P. falciparum (IC50 μM)
The response must be a number in µM with no trailing unit.

• Oc1cc(Cl)ccc1Oc1ccc(Cl)cc1Cl [Triclosan, reference compound] = 0.8

Now look at this one.
# input # IC50 lookup, item O=C(NCc1ccc(C(F)(F)F)cc1)c1sc2ccccc2c1Br
# output 1.18
